- Test system: HAP1 MTAP-deleted cell line
- assay_name: SDMA in-cell western assay, HAP1 MTAP-deleted
- Format: cell-based
- condition_summary: Homo sapiens, HAP1, SDMA in-cell western, HAP1 MTAP-deleted; read-out: HAP 1 MTAP deleted IC50
pIC50: −log10 of the molar value.
readout: pIC50

[[record]]
compound = "C[C@@H]1CC[C@@H](c2ccncc2)N(C(=O)C(=O)Nc2cncc(C(N)=O)c2)C1 (single isomer, unassigned)"
recorded_result = "< 6.00"

[[record]]
compound = "CCc1cc(NC(=O)C(=O)N2C[C@@H](C)CC[C@@H]2c2ccc3sc(C4CCN(CC(F)F)CC4)nc3c2)cnc1N"
recorded_result = "> 7.00"

[[record]]
compound = "C[C@@H]1CC[C@@H](c2cc3cn[nH]c3s2)N(C(=O)C(=O)Nc2cncc(C(N)=O)c2)C1 (single isomer, unassigned)"
recorded_result = "> 7.00"

[[record]]
compound = "CC(=O)N[C@H]1C[C@H]([C@@H]2CC[C@H](C)CN2C(=O)C(=O)Nc2cnc(N)c(C)c2)C1 (single isomer, unassigned)"
recorded_result = "< 6.00"

[[record]]
compound = "CCc1cc(NC(=O)C(=O)N2C[C@@H](C)CC[C@@H]2c2ccc(N3CCN(CC)CC3)cc2)cnc1N (single isomer, unassigned)"
recorded_result = "< 6.00"

[[record]]
compound = "Cc1ccc([C@@H]2CC[C@@H](C)CN2C(=O)C(=O)Nc2cnc(N)c(C)c2)cc1O (racemic)"
recorded_result = "> 7.00"


---

- tested_on: PRMT5 (Homo sapiens)
- Construct: purchased Viva (custom protein)
- Sequence (O14744 whole entry): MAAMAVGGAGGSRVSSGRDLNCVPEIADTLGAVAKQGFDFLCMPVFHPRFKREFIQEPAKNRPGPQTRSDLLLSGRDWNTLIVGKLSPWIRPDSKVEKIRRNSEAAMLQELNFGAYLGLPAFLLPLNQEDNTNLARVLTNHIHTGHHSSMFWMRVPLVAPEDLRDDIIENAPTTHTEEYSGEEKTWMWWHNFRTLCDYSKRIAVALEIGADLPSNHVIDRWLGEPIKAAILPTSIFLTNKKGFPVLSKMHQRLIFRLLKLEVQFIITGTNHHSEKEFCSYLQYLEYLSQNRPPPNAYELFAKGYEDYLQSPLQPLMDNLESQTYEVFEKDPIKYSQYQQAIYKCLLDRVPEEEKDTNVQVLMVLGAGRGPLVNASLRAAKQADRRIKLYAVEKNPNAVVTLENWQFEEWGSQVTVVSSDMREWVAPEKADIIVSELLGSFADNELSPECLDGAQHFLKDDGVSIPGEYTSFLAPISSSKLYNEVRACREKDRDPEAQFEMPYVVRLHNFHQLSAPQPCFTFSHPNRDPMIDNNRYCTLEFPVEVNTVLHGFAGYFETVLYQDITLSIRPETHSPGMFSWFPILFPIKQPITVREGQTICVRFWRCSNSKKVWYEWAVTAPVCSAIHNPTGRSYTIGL
- Sequence (Q9BQA1 whole entry partner): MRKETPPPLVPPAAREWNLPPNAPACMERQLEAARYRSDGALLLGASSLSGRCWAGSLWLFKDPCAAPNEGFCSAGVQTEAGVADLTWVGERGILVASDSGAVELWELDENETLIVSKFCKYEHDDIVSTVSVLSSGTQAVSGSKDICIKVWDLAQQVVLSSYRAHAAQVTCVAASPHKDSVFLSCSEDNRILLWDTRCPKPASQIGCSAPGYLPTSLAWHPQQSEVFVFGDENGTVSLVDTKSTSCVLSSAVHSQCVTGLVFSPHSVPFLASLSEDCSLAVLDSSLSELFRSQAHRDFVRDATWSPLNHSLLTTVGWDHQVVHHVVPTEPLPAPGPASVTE
- assay_name: PRMT5 biochemical IC50 assay with MTA as cofactor
- condition_summary: PRMT5, MTA as cofactor; read-out: MTA IC50
pIC50: −log10 of the molar value.
readout: pIC50

[[record]]
molecule = "[H][C@@]1([C@]2([H])C[C@]3(C[C@H](O)C3)C2)CC[C@@H](C)CN1C(=O)C(=O)Nc1cnc(N)c(C)c1 (single isomer, unassigned)"
recorded_result = "< 6.30"

[[record]]
molecule = "Cc1ncc(NC(=O)C(=O)N2C[C@H](C)CC[C@H]2c2ccc(F)cc2)cc1Cl (racemic)"
recorded_result = "6.30 to 7.30"

[[record]]
molecule = "Cc1cc(NC(=O)C(=O)N2C[C@@H](C)CC[C@@H]2c2ccccc2)cnc1C (single isomer, unassigned)"
recorded_result = "< 6.30"

[[record]]
molecule = "COc1ncc(NC(=O)C(=O)N2C[C@@H](C)CC[C@@H]2c2ccc3sc([C@H]4CCN(C)C[C@@H]4C)nc3c2)cc1C(N)=O (racemic)"
recorded_result = "> 7.30"

[[record]]
molecule = "COc1ncc(NC(=O)C(=O)N2C[C@H](C)CC[C@@H]2C2CCCC2)cc1C(N)=O (single isomer, unassigned)"
recorded_result = "6.30 to 7.30"

[[record]]
molecule = "C[C@H]1CC[C@H](c2ccc3sc(CN(C)C)nc3c2)N(C(=O)C(=O)Nc2cnc(N)c(C3CC3)c2)C1"
recorded_result = "> 7.30"

[[record]]
molecule = "Cc1cc(NC(=O)C(=O)N2C[C@H](C)CC[C@H]2c2ccc3c(c2)CNC3=O)cnc1N (single isomer, unassigned)"
recorded_result = "6.30 to 7.30"

[[record]]
molecule = "Cc1cc(NC(=O)C(=O)N2CCCC[C@@H]2c2ccccc2)cnc1N (single isomer, unassigned)"
recorded_result = "> 7.30"

[[record]]
molecule = "C[C@@H]1CN(C(=O)C(=O)Nc2cncc(C(N)=O)c2)[C@@H](c2ccc(F)cc2)C(F)(F)C1 (racemic)"
recorded_result = "> 7.30"

[[record]]
molecule = "COc1ncc(NC(=O)C(=O)N2C[C@H](C)CC[C@H]2c2ccc(-c3nccs3)cc2)cc1C(N)=O (single isomer, unassigned)"
recorded_result = "< 6.30"

[[record]]
molecule = "Cc1cc(NC(=O)C(=O)N2C[C@@H](C)CC[C@@H]2c2ccc3sc(C(F)(F)F)nc3c2)cnc1N (single isomer, unassigned)"
recorded_result = "> 7.30"

[[record]]
molecule = "CC(=O)N1CCC(c2cccc(C3CCCCN3C(=O)C(=O)Nc3cncc(C)c3)c2)CC1 (single isomer, unassigned) [Compound 73]"
recorded_result = "< 6.30"

[[record]]
molecule = "CNc1ccc([C@H]2CC[C@H](C)CN2C(=O)C(=O)Nc2cncc(C(N)=O)c2)cn1 (single isomer, unassigned)"
recorded_result = "< 6.30"

[[record]]
molecule = "Cc1cc(NC(=O)C(=O)N2C[C@H](C)CC[C@H]2c2ccsc2)cnc1N (racemic)"
recorded_result = "6.30 to 7.30"

[[record]]
molecule = "CCc1cc(NC(=O)C(=O)N2C[C@@H](C)CC[C@@H]2c2ccc(N3CC[C@@H]4CN(C)C[C@@H]4C3)cc2)cnc1N (relative stereo)"
recorded_result = "> 7.30"

[[record]]
molecule = "C[C@@H]1CC[C@@H](c2ccc(C#N)cc2)N(C(=O)C(=O)Nc2cncc(C(N)=O)c2)C1 (racemic)"
recorded_result = "> 7.30"

[[record]]
molecule = "C[C@@H]1CC[C@@H](c2ccc(F)c(F)c2)N(C(=O)C(=O)Nc2cncc(C(N)=O)c2)C1 (single isomer, unassigned) [Compound 474]"
recorded_result = "< 6.30"

[[record]]
molecule = "CCc1cc(NC(=O)C(=O)N2C[C@H](C)CC[C@H]2c2ccc3sc(CCOC)nc3c2)cnc1N (single isomer, unassigned)"
recorded_result = "< 6.30"

[[record]]
molecule = "COc1ncc(NC(=O)C(=O)N2C[C@@H](C)CC[C@@H]2c2ccc3sc([C@@H]4CCN(C)C[C@H]4C)nc3c2)cc1C(N)=O (racemic)"
recorded_result = "> 7.30"

[[record]]
molecule = "C[C@H]1CCC[C@@H](c2ccccc2)N1C(=O)C(=O)Nc1cncc(C(N)=O)c1 (single isomer, unassigned)"
recorded_result = "> 7.30"

[[record]]
molecule = "C[C@@H]1CC[C@@H](c2cccc(N(C)C)c2)N(C(=O)C(=O)Nc2cncc(C(N)=O)c2)C1 (single isomer, unassigned)"
recorded_result = "> 7.30"

[[record]]
molecule = "CCc1cc(NC(=O)C(=O)N2C[C@@H](C)CC[C@@H]2c2ccc3sc(C4CCCN4C)nc3c2)cnc1N (stereo partly drawn)"
recorded_result = "> 7.30"

[[record]]
molecule = "Cc1cc(NC(=O)C(=O)N2C[C@@H](C)CC[C@@H]2c2ccc(N3CCN(C)CC3)nc2)cnc1N (single isomer, unassigned)"
recorded_result = "< 6.30"

[[record]]
molecule = "C[C@H]1CC[C@H](c2ccc3sc(C4CCN(C)CC4)nc3c2)N(C(=O)C(=O)Nc2cncc(C(N)=O)c2)C1 (single isomer, unassigned)"
recorded_result = "> 7.30"


---

The reader will find reported IC50 values listed item by item below.
- Tested on: HAP1 MTAP-deleted cell line
- assay_name: SDMA in-cell western assay, HAP1 MTAP-deleted
- Type: cell-based
- condition_summary: Homo sapiens, HAP1, read-out: HAP1 MTAP deleted IC50
Counter-ions that a name gives are not always drawn.
readout: IC50

[[record]]
molecule = "Cc1cc(NC(=O)C(=O)N2C[C@H](C)CC[C@H]2c2ccc3sc(CN(C)C)nc3c2)cnc1N (single isomer, unassigned) [Compound 1122]"
recorded_result = "< 100 nM"

[[record]]
molecule = "[2H][C@]1(c2ccc(F)cc2)CC[C@H](C)CN1C(=O)C(=O)Nc1cnc(N)c(C)c1 (racemic) [Compound 1009, hydrochloride]"
recorded_result = "< 100 nM"

[[record]]
molecule = "Cc1cc(NC(=O)C(=O)N2C[C@@H](C)CC[C@@H]2c2ccc3cnccc3c2)cnc1N (single isomer, unassigned) [Compound 1002]"
recorded_result = "100 to 1000 nM"

[[record]]
molecule = "CCc1cc(NC(=O)C(=O)N2C[C@H](C)CC[C@H]2c2ccc3scnc3c2)cnc1N (stereo in doubt) [Compound 694]"
recorded_result = "100 to 1000 nM"

[[record]]
molecule = "C[C@H]1CC[C@H](c2ccccc2)N(C(=O)C(=O)Nc2cncc(C(N)=O)c2)C1 (single isomer, unassigned) [Compound 88]"
recorded_result = "< 100 nM"

[[record]]
molecule = "Cc1cc(NC(=O)C(=O)N2C[C@H](C)CC[C@H]2c2ccc(C(F)F)cc2)cnc1N (single isomer, unassigned) [Compound 419]"
recorded_result = "< 100 nM"

[[record]]
molecule = "[2H]c1nc2cc([C@H]3CC[C@H](C)CN3C(=O)C(=O)Nc3cnc(N)c(C)c3)ccc2s1 [Compound 1177]"
recorded_result = "< 100 nM"

[[record]]
molecule = "Cc1cc(NC(=O)C(=O)N2C[C@@H](C)CC[C@@H]2c2ccc(N(C)C3CCN(C)CC3)nc2)cnc1N [Compound 1225]"
recorded_result = "< 100 nM"

[[record]]
molecule = "Cc1cc(NC(=O)C(=O)N2C[C@@H](C)CC[C@@H]2c2ccc3sc(N4CCN(C)CC4)nc3c2)cnc1N [Compound 1158]"
recorded_result = "< 100 nM"

[[record]]
molecule = "Cc1cc(NC(=O)C(=O)N2C[C@H](C)CC[C@H]2c2ccc(O)cc2)cnc1N (racemic) [Compound 164]"
recorded_result = "< 100 nM"

[[record]]
molecule = "Cc1cc(NC(=O)C(=O)N2C[C@@H](C)CC[C@@H]2c2ccc3[nH]ncc3c2)cnc1N (single isomer, unassigned) [Compound 364]"
recorded_result = "> 1000 nM"

[[record]]
molecule = "Cc1cc(NC(=O)C(=O)N2C[C@H](C)CC[C@H]2c2ccc3cnccc3c2)cnc1N (racemic) [Compound 758]"
recorded_result = "< 100 nM"

[[record]]
molecule = "C[C@H]1CC[C@H](c2ccc(O)cc2)N(C(=O)C(=O)Nc2cncc(C(N)=O)c2)C1 (single isomer, unassigned) [Compound 287]"
recorded_result = "< 100 nM"

